Below, IC50 values reported for Cytochrome P450 1A2 (Homo sapiens) across several publications.
Molecular target: Cytochrome P450 1A2 (Homo sapiens)
Sequence (P05177 whole entry): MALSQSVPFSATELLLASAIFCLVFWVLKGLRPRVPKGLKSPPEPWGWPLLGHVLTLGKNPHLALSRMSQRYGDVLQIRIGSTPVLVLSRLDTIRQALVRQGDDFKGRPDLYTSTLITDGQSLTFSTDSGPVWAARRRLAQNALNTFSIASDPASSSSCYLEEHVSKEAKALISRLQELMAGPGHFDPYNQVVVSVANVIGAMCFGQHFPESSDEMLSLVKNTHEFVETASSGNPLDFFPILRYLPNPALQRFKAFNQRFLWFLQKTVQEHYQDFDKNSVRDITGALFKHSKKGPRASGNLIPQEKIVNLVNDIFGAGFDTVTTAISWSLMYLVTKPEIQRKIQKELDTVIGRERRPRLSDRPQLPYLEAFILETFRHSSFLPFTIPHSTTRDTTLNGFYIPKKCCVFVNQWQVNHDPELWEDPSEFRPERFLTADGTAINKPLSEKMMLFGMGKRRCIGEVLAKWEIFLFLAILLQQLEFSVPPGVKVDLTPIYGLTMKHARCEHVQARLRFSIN
QUANTITY KIND: IC50

COMPOUND | QUANTITY KIND | RESULT
Fc1cc(OC(F)(F)C(F)F)cc([C@@](Cc2ccccc2)(Nc2nc3ccccc3[nH]2)c2ccc(Cl)cn2)c1 | IC50 | 40 µM
O=C(NCc1ncc(C(F)(F)F)cc1Cl)c1ccc2c(c1)C1(CCS(=O)(=O)CC1)[C@H](C1CC1)N2S(=O)(=O)c1ccc(F)cc1 | IC50 | > 10 µM
c1cnc2c(Nc3ccc4c(-n5cccn5)nccc4c3)n[nH]c2c1 | IC50 | 1.5 µM
O=C1CC(c2c(C(F)(F)F)cccc2C(F)(F)F)CC(O)=C1Sc1ccccc1Cl (centres undefined) | IC50 | > 5 µM
COc1ccc2c(c1)[C@]1(C[C@H]1c1ccc3c(/C=C/c4ccc(N5CCN(C)CC5)nc4)n[nH]c3c1)C(=O)N2 (relative stereo) | IC50 | > 10 µM
c1cnc2c(Nc3ccc4c(C5CCCC5)noc4c3)n[nH]c2n1 | IC50 | 3 µM
CCn1cc(C(=O)O)c(=O)c2cc(F)c(N3CCNCC3)cc21 | IC50 | > 50 µM
NC(=O)[C@@H]1C[C@H](F)CN1Cc1ccc(OCc2cccc(F)c2)cc1 | IC50 | > 29 µM
CC(C)c1cc(CNC(=O)c2ccc(Cl)c(OC3CCN(C)CC3)c2)on1 | IC50 | > 30 µM
